The values you see were collected from patent US6403638B1.

# target_under_test: RXRα (Homo sapiens, UniProt P19793)
# Sequence (P19793 1-462): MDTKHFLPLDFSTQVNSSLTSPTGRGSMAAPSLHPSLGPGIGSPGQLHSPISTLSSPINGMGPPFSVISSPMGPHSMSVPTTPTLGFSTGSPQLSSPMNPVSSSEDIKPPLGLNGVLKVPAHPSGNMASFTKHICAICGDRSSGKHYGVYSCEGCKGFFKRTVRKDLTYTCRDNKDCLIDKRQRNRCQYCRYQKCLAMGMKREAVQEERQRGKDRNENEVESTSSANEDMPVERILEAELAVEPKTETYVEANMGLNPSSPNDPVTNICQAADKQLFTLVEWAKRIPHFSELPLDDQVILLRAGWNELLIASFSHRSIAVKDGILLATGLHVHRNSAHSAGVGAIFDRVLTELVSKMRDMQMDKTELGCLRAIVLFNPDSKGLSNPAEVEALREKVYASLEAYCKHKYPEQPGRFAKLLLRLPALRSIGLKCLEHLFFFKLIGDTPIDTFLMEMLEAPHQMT
# test_protocol: RXR receptor transactivation assay
# test_settings: read-out: EC50 RXR α transactivation
parameter_measured: EC50 (nM)

CC(/C=C/[C@@H]1C[C@]1(C)c1ccc2c(c1)C(C(C)C)=CCC2(C)C)=C\C(=O)O [Compound 64] ... 0.1

I: CCCC1(c2cc(C(C)(C)C)cc(C(C)(C)C)c2)CC1/C=C/C(C)=C/C(=O)O (single isomer, unassigned; (+)) [Compound 14]
II: CC(/C=C/[C@@H]1C[C@]1(C)c1ccc2c(c1)OC(C)(C)C=C2C(C)(C)C)=C\C(=O)O [Compound 88]
III: CC1=CC(C)(C)Oc2cc(C3(C)CC3/C=C/C(C)=C/C(=O)O)ccc21 (stereo not shown) [Compound 28]
Order each entry by recorded EC50, climbing from the minimum. Note for the reader: the ranking is given by listing the labels in the order requested. III, II, I

---

# target_under_test: RXRα (Homo sapiens)
# Construct: expressed in transfected cells
# test_protocol: RXR receptor transactivation assay
# Type: cell-based
# test_settings: read-out: % Eff RXR α transactivation
parameter_measured: Emax (%)

CC(/C=C/[C@@H]1C[C@]1(C)c1ccc2c(c1)C(C(C)C)=CCC2(C)C)=C\C(=O)O ... 109
CC(/C=C/[C@@H]1C[C@]1(C)c1ccc2c(c1)C(C(C)(C)C)=CCC2(C)C)=C\C(=O)O ... 95
CCCC1(c2ccc3c(c2)C(C(C)(C)C)=CCC3(C)C)CC1/C=C/C(C)=C/C(=O)O (single isomer, unassigned; (+)) ... 94
CC(/C=C/[C@@H]1C[C@]1(C)c1ccc2c(c1)OC(C)(C)C=C2C(C)C)=C\C(=O)O ... 102
CCCC1(c2cc(C(C)(C)C)cc(C(C)(C)C)c2)CC1/C=C/C(C)=C/C(=O)O (single isomer, unassigned; (+)) ... 93
CC(/C=C/[C@@H]1C[C@]1(C)c1cc(C(C)(C)C)cc(C(C)(C)C)c1)=C\C(=O)O ... 87
CCCC1(c2ccc3c(c2)C(C(C)C)=CCC3(C)C)CC1/C=C/C(C)=C/C(=O)O (single isomer, unassigned; (+)) ... 105
CC1=CC(C)(C)Oc2cc(C3(C)CC3/C=C/C(C)=C/C(=O)O)ccc21 (centres unmarked) ... 103
CCC1(c2cc(C(C)C)cc(C(C)C)c2)CC1/C=C/C(C)=C/C(=O)O (single isomer, unassigned; (+)) ... 147
CCCCC1=CC(C)(C)Oc2cc([C@@]3(C)C[C@H]3/C=C/C(C)=C/C(=O)O)ccc21 ... 110
CC(/C=C/[C@@H]1C[C@]1(C)c1ccc2c(c1)OC(C)(C)C=C2C(C)(C)C)=C\C(=O)O ... 106
